Record form. Attribute: pEC50. Fill in for each entry.
target-or-test-system: human CB2R (Homo sapiens)
Construct: host or cells: CHO cells
Sequence (P34972 whole entry): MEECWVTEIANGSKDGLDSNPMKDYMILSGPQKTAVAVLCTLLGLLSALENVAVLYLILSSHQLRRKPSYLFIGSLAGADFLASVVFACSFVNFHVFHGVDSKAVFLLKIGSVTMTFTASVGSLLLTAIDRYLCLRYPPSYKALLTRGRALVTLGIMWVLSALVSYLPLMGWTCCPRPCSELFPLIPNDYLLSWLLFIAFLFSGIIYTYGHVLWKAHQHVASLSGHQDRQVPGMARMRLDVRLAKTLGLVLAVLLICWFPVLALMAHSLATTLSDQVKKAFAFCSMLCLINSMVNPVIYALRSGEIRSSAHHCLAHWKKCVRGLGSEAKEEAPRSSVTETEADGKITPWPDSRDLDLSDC
assay: CB2R mediated modulation of cAMP synthesis
Type: cell-based
condition-details: CHO cells expressing human CB2R; inhibition of forskolin-stimulated cAMP synthesis; read-out: CB2 EC50
Numbers only, as −log10 of the molar value.

In the examples that follow, each entry is paired with its recorded pEC50.
{"compound": "CC[C@H](C)S(=O)(=O)C(C)(C)C(=O)Nc1cc(C(C)(C)[C@H](C)O)no1", "target-or-test-system": "human CB2R (Homo sapiens)", "pEC50": 6.60}
{"compound": "COc1ccc(COCC(C)(C)c2cc(NC(=O)C(C)(C)S(=O)(=O)CC3CCOCC3)on2)cc1", "target-or-test-system": "human CB2R (Homo sapiens)", "pEC50": 6.78}
{"compound": "CC(C)(C(=O)Nc1cc([C@@H]2CCCO2)no1)S(=O)(=O)C1CCOCC1", "target-or-test-system": "human CB2R (Homo sapiens)", "pEC50": 6.86}
{"compound": "CC(C)(C(=O)Nc1cc(C2CCOCC2)no1)S(=O)(=O)CCCC(F)(F)F", "target-or-test-system": "human CB2R (Homo sapiens)", "pEC50": 6.43}
{"compound": "CC(C)(C(=O)Nc1cc(C2CCCO2)no1)S(=O)(=O)C1CCOCC1 (centres unmarked)", "target-or-test-system": "human CB2R (Homo sapiens)", "pEC50": 7.00}

Provide each entry's pEC50 from the list below.
1. CC(C)(O)C(C)(C)c1cc(NC(=O)C(C)(C)S(=O)(=O)C2CCOCC2)on1
2. C[C@H](O)C(C)(C)c1cc(NC(=O)C(C)(C)S(=O)(=O)CC2CCOCC2)no1
3. CC(C)(C(=O)Nc1cc(C2CCOC2)no1)S(=O)(=O)CCCC(F)(F)F (centres unmarked)

[6.94, 6.92, 6.76]

Provide each entry's pEC50 from the list below.
1. CC(C)(C(=O)Nc1cc(C2CCOCC2)no1)S(=O)(=O)C1CCOCC1
2. CC(C)C(O)C(C)(C)c1cc(NC(=O)C(C)(C)S(=O)(=O)C2CCOCC2)on1 (centres unmarked)
3. C[C@H](O)C(C)(C)c1cc(NC(=O)C(C)(C)S(=O)(=O)C2CCN(S(C)(=O)=O)CC2)on1

[6.46, 6.82, 6.97]

----------
target-or-test-system: human CB2R (Homo sapiens)
Construct: host or cells: CHO cells
assay: CB2R mediated modulation of cAMP synthesis
Assay type: cell-based
observation-type: EC50 (nM)
Numbers only, in nM.

{"molecule": "C[C@H](OC1CCCOC1)C(C)(C)c1cc(NC(=O)C(C)(C)S(=O)(=O)C2CCOCC2)on1 (stereo partly shown)", "result-units": "nM", "EC50": 2.8}
{"molecule": "CC(C)(COC(=O)c1ccccc1)c1cc(NC(=O)C(C)(C)S(=O)(=O)C2CCOCC2)on1", "result-units": "nM", "EC50": 11}

Provide each entry's EC50 from the list below.
1. CO[C@@H](C)C(C)(C)c1cc(NC(=O)C(C)(C)S(=O)(=O)C2CCOCC2)no1
2. COCCOCC(C)(C)c1cc(NC(=O)C(C)(C)S(=O)(=O)CC2CCOCC2)no1
3. CC(O)C(C)(C)c1cc(NC(=O)C(C)(C)S(=O)(=O)C2CCOCC2)on1 (stereo not shown)

1. 10.8
2. 15
3. 14

Provide each entry's EC50 from the list below.
1. CC(C)(COCCO)c1cc(NC(=O)C(C)(C)S(=O)(=O)C2CCN(S(C)(=O)=O)CC2)on1
2. CC(C)CCS(=O)(=O)C(C)(C)C(=O)Nc1cc(C2CCOCC2)no1

1: 10; 2: 97
